Test system: U251 CNS
protocol_description: NCI-60 one-dose screen, 48 h
experimental_context: 10 µM unless noted
The panel holds about 83,000 compounds, 20% with a hit somewhere; the sample as a whole holds those more often. Active and inactive are the calls of the source. How the source made its calls: active means growth percent below 10; inactive means the rest.
Classes to choose from: label 1 for active, label 0 for inactive

Answered examples (4):
In [3]: df
Out[3]:
                                   compound  target_of_assay      cat
0  c1ccc2nc(Cn3cc[n+](Cc4ccc5ccccc5n4)c3)ccc2c1         U251 CNS  label 0
1            c1ccc2c(c1)Oc1cccnc1-n1nccc1-2         U251 CNS  label 0
2  CC12CCC3C(CCC4CC(O)CCC43C)C1C/C(=C/O)C(=O)O2 (stereo not given)         U251 CNS  label 0
3  CCCCCCCCCCCCCCCC(=O)NS(=O)(=O)OC[C@H]1O[C@@H](n2cnc3c(N)ncnc32)[C@H](O)[C@@H]1O         U251 CNS  label 1

Moving on to another compound below.
Can you look up the reported call for CCOC(=O)C(C)(CSSCC(C)(NC(=O)c1ccc2ccccc2c1)C(=O)OCC)NC(=O)c1ccc2ccccc2c1 (stereo not given) for me?
label 0
